The reported measurements were obtained from patent US11773127B2.

biological target: FmlHLD (Escherichia coli, UniProt P77588); construct: 6xHis (C); made in house; host or cells: E. coli C600, periplasm, pTRC99a; experiment: biochemical; format: binding, E. coli; conditions: read-out: % Inhibition at [μM] [10], compound at 10 μM; inhibition of FmlHLD binding to ds-BSM
Sequence (P77588 25-182): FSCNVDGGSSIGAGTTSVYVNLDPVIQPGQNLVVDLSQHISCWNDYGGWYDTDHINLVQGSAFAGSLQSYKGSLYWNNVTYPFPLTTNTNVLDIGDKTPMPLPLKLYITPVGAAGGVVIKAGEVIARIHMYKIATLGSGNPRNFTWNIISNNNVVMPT
Reported inhibition at 10 µM by item:
metric.name: inhibition at 10 µM (%)

# compound, unit.name, reported.result
measured = [
    ("OC[C@H]1O[C@H](Oc2ccc(-c3ccccc3)cc2)[C@H](O)[C@@H](O)[C@H]1O", "%", 22.6),
    ("OC[C@H]1O[C@@H](Oc2cccc3cccnc23)[C@H](O)[C@@H](O)[C@H]1O [Compound 8HQG, reference compound]", "%", 48.1),
    ("Nc1ccc(O[C@@H]2O[C@H](CO)[C@H](O)[C@H](O)[C@H]2O)cc1 [4-amino-phenyl Gal, reference compound]", "%", 9.8),
    ("O=c1ccc2nc3ccc(O[C@@H]4O[C@H](CO)[C@H](O)[C@H](O)[C@H]4O)cc3oc-2c1 [Resorufin Gal, reference compound]", "%", 24),
    ("CC(=O)N[C@H]1[C@H](Oc2ccccc2-c2cccc(C(=O)O)c2)O[C@H](CO)[C@H](O)[C@@H]1O [Compound 200b-GalNAc]", "%", 93),
    ("Cc1c(C)c2ccc(O[C@@H]3O[C@H](CO)[C@H](O)[C@H](O)[C@H]3O)cc2oc1=O [Compound D715-0293, reference compound]", "%", 19.8),
    ("Cc1cc(=O)oc2cc(O[C@@H]3O[C@H](CO)[C@H](O)[C@H](O)[C@H]3O)ccc12 [MUG, reference compound]", "%", 19.7),
]
